Reported melting point by item:

Molecule	Result
CC(C)=C(C(=O)OCc1ccccc1)N1C(=O)C(Br)(Br)C1Br (stereo unspecified)	68 to 70 °C
O=C(O)c1cccc(-n2cc(-c3ccccc3F)cn2)c1	225 to 226 °C
CCNc1cccc(NC(=O)C(=O)OCC)c1C#N	99 to 102 °C
CN(CCCCC(=O)O)c1ccc(Br)cc1C=O	72 to 73 °C
CCN(CC)c1ccc(F)c2nc(Nc3ccc(Cl)cc3Cl)[nH]c12	204 to 205 °C

Field: next molecule
stdin: Param item = "O=C(NCc1ccn(-c2cc3nc(C(=O)O)c(=O)[nH]c3cc2C(F)(F)F)c1)Nc1ccccc1" ; retrieve measured melting point.
stdout: > 300 °C

###

Reported endpoint: melting point

stdin: Sample "CS(=O)(=O)Nc1ccc2ncn3c(=O)c(C(=O)O)cnc3c2c1" — what was its melting point?
stdout: 319 to 322 °C

stdin: Now this one: O=C(Cn1c(-c2ccc(F)cc2)ncc(NC(=O)OCc2ccccc2)c1=O)NC(Cc1ccccc1)C(=O)C(F)(F)F (stereo unspecified)
stdout: 103 to 107 °C

stdin: Please give the result for "Cc1oc(-c2ccccc2)nc1CCOc1ccc(C[C@H](NC(=O)C=Cc2ccc(F)cc2)C(=O)O)cc1" too.
stdout: 188 to 190 °C

stdin: // next record "FC(F)(F)c1ccc(-c2cc(Oc3cccc4ccncc34)ncn2)cc1"
stdout: 194 to 195 °C

stdin: # repeat for "CCC(=O)C1c2cccc(O)c2C(=O)c2c(O)cccc21"
stdout: 115 °C

stdin: Another compound to check: Cc1cc2c(cc1O)C(C)(C)CC(C)(c1cc(O)c(C)cc1O)O2 (stereo unspecified)
stdout: 190 °C

###

Reported endpoint: melting point

Please review the entries below; each comes with its answer.
Molecule	Result
CC1(C)Nc2nc(Cl)ccc2NC1=O	229 °C
COc1ccc2oc(-c3ccccc3)c(CC#N)c2c1	106 to 107 °C
CC(=O)NCC1CN(c2ccc3c(c2)CC(CO)N3C=O)C(=O)O1 (stereo unspecified)	132 to 136 °C
CC(C)(C)OC(=O)N1C[C@@H]2C[C@H]1C(=O)N2C(C)(C)C	167 to 168 °C
O=[N+]([O-])c1c(NCC23CCCN2CCC3)ccc2ccccc12	86 to 87 °C
CS(=O)(=O)Nc1cc2oc(O)cc(=O)c2cc1Oc1ccccc1	> 250 °C
Cc1c(Cc2cccc(C(F)(F)F)c2)sc2c(-c3cc(C(=O)O)ccn3)cccc12	271 to 272 °C
O=C(O)COc1c2ccccc2c(-c2cc(Br)c(OC(Cc3ccccc3)C(=O)O)c(Br)c2)c2c1sc1ccccc12 (stereo unspecified)	110 to 120 °C

stdin: # get_value(readout='melting point', item= "O=C1COC(Nc2ccccc2)=C1C(=O)Nc1ccccc1" )
stdout: 182 to 184 °C

stdin: Next up: "CCCCC/C(=C\C=C\C(=O)O)c1ccc(OC)c(OC)c1"
stdout: 98 to 99.5 °C

stdin: Same for "Cc1ccsc1-c1nc(COc2ccc(CCCn3ccnc3)cc2)co1"
stdout: 72 to 73 °C

stdin: Same for "COC(=O)CCc1cc2cc(Cl)ccc2n1S(=O)(=O)c1cccc2cccnc12"
stdout: 157 to 161 °C

stdin: Do the same for Cc1nc(-c2ccc(C#N)cc2)sc1C(=O)N[C@H](C)[C@](O)(Cn1cncn1)c1ccc(C(F)(F)F)cc1 (relative stereo) please
stdout: 105 to 111 °C

stdin: Next up: "C#CCOC1c2ccccc2Oc2ccccc21"
stdout: 74 to 76 °C
